# ASSAY: Chemical stability of the compound assessed as half life at pH 1
# Format: physicochemical
# RECORDED_CONDITIONS: buffer
PROPERTY_MEASURED: half-life (days)
Number in days, nothing else.

Input O=C1CCOc2nc(C#Cc3ccccc3)ccc21 . Output half-life: 11.6
